assay: The drug is tested on WLS-006 corresponding to human gut metagenome with ENA study accession number: PRJEB37062 and ENA sample accession number: ERS12561741 for biotransformation under anaerobic condition. The drug concentrations were measured over 9 timepoints collected between 0 and 24 hours of incubation by liquid-chromatography-coupled mass spectrometry (LC–MS); conditions: 2 µM; further: call rule not given here
property-name: Bacterial Biotransformation

COCCCC/C(=N\OCCN)c1ccc(C(F)(F)F)cc1.O=C(O)/C=C\C(=O)O [FLUVOXAMINE MALEATE]: Compound metabolized
COc1cc2nc(N3CCN(C(=O)C4CCCO4)CC3)nc(N)c2cc1OC (stereo unspecified) [TERAZOSIN]: Compound metabolized
CC(CCc1ccccc1)NCC(O)c1ccc(O)c(C(N)=O)c1 (stereo unspecified) [LABETALOL]: Compound NOT metabolized
O=C(NC(Cc1cc(=O)[nH]c2ccccc12)C(=O)O)c1ccc(Cl)cc1 (stereo unspecified) [REBAMIPIDE]: Compound NOT metabolized

The following compounds each have a reported value; give each one's Bacterial Biotransformation.
1. C[C@]12CCC(=O)C=C1[C@@H]1C[C@@H]1[C@H]1[C@@H]3[C@@H]4C[C@@H]4[C@@]4(CCC(=O)O4)[C@@]3(C)CC[C@@H]12 [DROSPIRENONE]
2. Cc1cc(C)cc(OCC2CNC(=O)O2)c1 (stereo unspecified) [METAXALONE]
3. CCN(CC)C(=O)C1(c2ccccc2)CC1CN (stereo unspecified)

Compound metabolized
Compound metabolized
Compound NOT metabolized
